- assaySystem: T1, 4H3354-bH
- T1 chain: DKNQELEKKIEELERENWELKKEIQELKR
- runDescription: two-hybrid library CCNG1;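 note: natural log of median RNA to DNA barcode read ratio; higher means stronger binding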
Reported interaction score values are given for each entry in this list.
The answer should be a number; do not append a unit.

Check out these entries, answers already filled in.
DKIQELKKEIEELKRKIWELKKENQELER [4H2667-bH] : -0.302
DKNQELEKEIEELERKIWELEKKNQELKR [4H3112-bH] : 0.156
DENQELKKKIEELERKNWELEKKIQELER [4H1845-bH] : 0.334

Proceeding to the next binder to report its interaction score.
Answer with the recorded interaction score for the binder listed here: DENQELKKKIEELERKIWELEKENQELKR [4H1828-bH] 0.672
